# IC50 values compiled below
assay_target: cdk1/cyclin B (Homo sapiens, UniProt P06493)
Sequence (P06493 whole entry): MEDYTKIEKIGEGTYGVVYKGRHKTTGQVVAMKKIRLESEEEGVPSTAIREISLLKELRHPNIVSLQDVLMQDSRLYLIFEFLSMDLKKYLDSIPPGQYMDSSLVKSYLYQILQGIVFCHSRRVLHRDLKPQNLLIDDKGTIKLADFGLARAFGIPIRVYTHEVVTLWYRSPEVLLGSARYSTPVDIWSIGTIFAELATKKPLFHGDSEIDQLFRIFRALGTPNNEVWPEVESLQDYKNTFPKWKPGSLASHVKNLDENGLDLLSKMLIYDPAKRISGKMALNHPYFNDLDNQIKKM
Sequence (P14635 whole entry partner): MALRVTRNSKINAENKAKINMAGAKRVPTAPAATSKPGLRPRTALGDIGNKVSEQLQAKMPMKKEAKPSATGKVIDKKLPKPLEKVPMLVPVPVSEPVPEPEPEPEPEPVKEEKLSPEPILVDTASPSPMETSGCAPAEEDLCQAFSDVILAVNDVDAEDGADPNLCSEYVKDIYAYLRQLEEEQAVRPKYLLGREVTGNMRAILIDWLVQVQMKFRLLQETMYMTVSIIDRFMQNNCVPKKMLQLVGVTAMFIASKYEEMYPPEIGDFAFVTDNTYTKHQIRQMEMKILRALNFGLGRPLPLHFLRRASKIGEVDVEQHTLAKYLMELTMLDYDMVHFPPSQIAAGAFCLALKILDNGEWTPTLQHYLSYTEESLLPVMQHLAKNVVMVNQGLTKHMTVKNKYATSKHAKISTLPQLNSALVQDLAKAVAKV
protocol_description: Cyclin-dependent kinase assay, cdk1/cyclin B
condition_set: CDK1 IC50, nM, Histone H1, 10 µM ATP
Structures can show the parent of a compound that is named as a salt.
Reply numerically in nM, unit not repeated.

molecule	assay_target	IC50, nM
N[C@H]1CC[C@H](Nc2nc(NC3CCN(C(=O)Cc4cccs4)CC3)c3ncn(C4CCCC4)c3n2)CC1 [compound 61, dihydrochloride]	cdk1/cyclin B (Homo sapiens, UniProt P06493)	40
CCOC(=O)N1CCC(Nc2nc(N[C@H]3CC[C@H](N)CC3)nc3c2ncn3C(C)C)CC1 [compound 104, dihydrochloride]	cdk1/cyclin B (Homo sapiens, UniProt P06493)	750

Field: next molecule
Quote IC50 reported for N[C@H]1CC[C@H](Nc2nc(NC3CCN(C(=O)Nc4ccccc4)CC3)c3ncn(C4CCCC4)c3n2)CC1 [compound 146, dihydrochloride] please.
18

Source of measurements: patent EP1377579B1
